biological target: T1, Histidine-tagged human CD40 protein (hCD40-His) (human, UniProt P25942 21-193); assay: SPR, Biacore T200; antibody on Protein A chip, hCD40-His injected; 1:1 fit
T1 construct: not shown: histidine tag
T1 sequence (P25942 21-193 limits assumed): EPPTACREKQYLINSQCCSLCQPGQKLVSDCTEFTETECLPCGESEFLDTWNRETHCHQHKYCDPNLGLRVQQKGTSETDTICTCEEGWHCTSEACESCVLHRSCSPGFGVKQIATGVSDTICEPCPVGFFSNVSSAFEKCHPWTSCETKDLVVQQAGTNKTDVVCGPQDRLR
property measured: log10 of Kd (log10 of the value in nM)

* 4H6-mHvKv-IgG1 (antibody, V domains shown, Chimeric) VH: EVKLQESGPSLVKPSQTLSLTCSVTGDSVSSGYWNWIRKFPGNKLEYMGFISYSGSTYYTPSLKSRISITRDTSKNQFYLQLNSVTTEDTATYFCARFRRYDDGVDYWGQGTTLTVSS VL: DIQMTQSPSSLSASLGERVSLTCRASHEISGYLSWIQQKPDGTIKRLINAASTLASGVPKRFSGSRSGSEYSLTINSLESEDFADYYCLQYSSYPWTFGGGTKLEIK | 1.56
* 7F10-mHvKv-IgG1-N297A (antibody, V domains shown, Chimeric; human IgG1 constant regions with N297A mutation (EU numbering) in the Fc region) VH: EVKLVESGGGLVQPGGSLKLSCATSGFTFSDYYMYWVRQTPEKRLEWVAYISYGGDSTFYPDTVRGRFTISRDNAKNALYLQMSRLKSEDTAVYYCARPAPSAHSYYLDYWGQGTTLTVSS VL: DIQMTQTTSSLSASLGDRVTISCRASQDISNYLNWYQQKPDGTVKLLIYYTSRLHSGLPSRFSGSGSGTDYSLTISNLEQEDIATYYCQQGKTLPFTFASGTKLEIK | 2.29
* 7F10-H2K2-IgG4 (antibody, V domains shown, Humanized) VH: EVQLVESGGGLVQPGGSLRLSCATSGFTFSDYYMYWVRQAPGKRLEWVAYISYGGDSTFYPDTVRGRFTISRDNAKNSLYLQMSSLKAEDTAVYYCARPAPSAHSYYLDYWGQGTLLTVSS VL: DIQMTQSPSSLSASVGDRVTITCRASQDISNYLNWYQQKPGGAVKLLIYYTSRLHSGLPSRFSGSGSGTDYTFTISSLQPEDIATYYCQQGKTLPFTFASGTKLEIK | 2.70
* 7F10-H1K3-IgG4 (antibody, V domains shown, Humanized) VH: EVQLVESGGGLVQPGGSLRLSCATSGFTFSDYYMYWVRQAPGKRLEWVAYISYGGDSTFYPDTVRGRFTISRDNAKNSLYLQMNSLRAEDTAVYYCARPAPSAHSYYLDYWGQGTLLTVSS VL: DIQMTQSTSSLSASVGDRVTITCRASQDISNYLNWYQQKPGGAVKLLIYYTSRLHSGLPSRFSGSGSGTDYTLTISSLQQEDIATYYCQQGKTLPFTFASGTKLEIK | 2.73
* 7F10-H2K1-IgG4 (antibody, V domains shown, Humanized) VH: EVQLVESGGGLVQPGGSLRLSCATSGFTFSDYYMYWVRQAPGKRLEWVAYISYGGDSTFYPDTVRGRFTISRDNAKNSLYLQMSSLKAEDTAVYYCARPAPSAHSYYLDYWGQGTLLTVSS VL: DIQMTQSPSSLSASVGDRVTITCRASQDISNYLNWYQQKPGGAVKLLIYYTSRLHSGLPSRFSGSGSGTDFTFTISSLQPEDIATYYCQQGKTLPFTFASGTKLEIK | 2.73

src = patent US20250034271A1
